# Test system: CCRF-CEM
# test: Cytotoxicity against human CCRF-CEM cells after 72 hrs by XTT assay
# Type: functional, cell-based
pIC50: −log10 of the molar value.
Binary classification by pIC50, with 7 as an inclusive lower bound for YES; all other cases are NO.

entry_smiles | study_target | label_value
Cc1c(COC(=O)NC(C)C)c(COC(=O)NC(C)C)c2n1Cc1c(c3ccccc3n1C)C2 | CCRF-CEM | YES
CCNC(=O)OCc1c(COC(=O)NCC)c(-c2ccc(F)c(Cl)c2)n2c1Cc1c(n(C)c3ccccc13)C2 | CCRF-CEM | NO
CCNC(=O)OCc1c(COC(=O)NCC)c(-c2ccc(OC)c(OC)c2)n2c1Cc1c(n(C)c3ccccc13)C2 | CCRF-CEM | NO
Cn1c2c(c3ccccc31)Cc1c(CO)c(CO)c(-c3ccc(Cl)cc3)n1C2 | CCRF-CEM | NO
CC(C)NC(=O)OCc1c(COC(=O)NC(C)C)c(-c2ccc(Cl)cc2)n2c1Cc1c(n(C)c3ccccc13)C2 | CCRF-CEM | NO
Cn1c2c(c3ccccc31)Cc1c(CO)c(CO)c(-c3ccccc3)n1C2 | CCRF-CEM | NO
COc1ccc(-c2c(CO)c(CO)c3n2Cc2c(c4ccccc4n2C)C3)cc1OC | CCRF-CEM | NO
Cn1c2c(c3ccccc31)Cc1c(CO)c(CO)c(-c3ccc(F)c(Cl)c3)n1C2 | CCRF-CEM | NO
CCNC(=O)OCc1c(COC(=O)NCC)c(-c2ccc(F)cc2)n2c1Cc1c(n(C)c3ccccc13)C2 | CCRF-CEM | NO
CC(C)NC(=O)OCc1c(COC(=O)NC(C)C)c(-c2ccc(F)c(Cl)c2)n2c1Cc1c(n(C)c3ccccc13)C2 | CCRF-CEM | NO
COc1cc(-c2c(COC(=O)NC(C)C)c(COC(=O)NC(C)C)c3n2Cc2c(c4ccccc4n2C)C3)cc(OC)c1OC | CCRF-CEM | NO
CC(C)NC(=O)OCc1c(COC(=O)NC(C)C)c(-c2ccc(F)c(F)c2)n2c1Cc1c(n(C)c3ccccc13)C2 | CCRF-CEM | NO
Cc1c(CO)c(CO)c2n1Cc1c(c3ccccc3n1C)C2 | CCRF-CEM | YES

* * *

Reported IC50 is given for each of the following molecules.
# System: CCRF-CEM
# test: Cytotoxicity against human CCRF-CEM cells after 72 hrs by XTT assay
# Format: functional, cell-based

entry_smiles | units_of_measure | IC50
CCNC(=O)OCc1c(COC(=O)NCC)c2n(c1C)Cc1c(c3ccccc3n1C)C2 | nM | 40
CCNC(=O)OCc1c(COC(=O)NCC)c(-c2cc(OC)c(OC)c(OC)c2)n2c1Cc1c(n(C)c3ccccc13)C2 | nM | 620
CCNC(=O)OCc1c(COC(=O)NCC)c(-c2ccc(F)c(F)c2)n2c1Cc1c(n(C)c3ccccc13)C2 | nM | 130
COc1ccc(-c2c(CO)c(CO)c3n2Cc2c(c4ccccc4n2C)C3)cc1 | nM | 1300
Cn1c2c(c3ccccc31)Cc1c(CO)c(CO)c(-c3ccc(F)c(F)c3)n1C2 | nM | 7940
COc1cc(-c2c(CO)c(CO)c3n2Cc2c(c4ccccc4n2C)C3)cc(OC)c1OC | nM | 4450
CCNC(=O)OCc1c(COC(=O)NCC)c(-c2ccccc2)n2c1Cc1c(n(C)c3ccccc13)C2 | nM | 230
Cn1c2c(c3ccccc31)Cc1c(CO)c(CO)c(-c3ccc(F)cc3)n1C2 | nM | 1460
CC(C)NC(=O)OCc1c(COC(=O)NC(C)C)c(-c2ccc(F)cc2)n2c1Cc1c(n(C)c3ccccc13)C2 | nM | 110
